Tested on: MS2 coat protein
Experiment: apparent KD of MS2 coat protein; higher = weaker reporter binding
Conditions: Eterna round: R107; input ligand: tryptophan 2.4 mM
Lab note: anything with apparent KD of MS2 coat protein at or over 0.03 µM counts as YES; the rest go in NO.

# bool: apparent KD of MS2 coat protein of GGGAGAUGAAAAGAUUGAGCUAAAACAGAAGGAGCGUGAAUUAACACAGGUAGGUCGCUGACAACAUGAGGAUCACCCAUGUAUU [Same State Arginine A GF4] >= 0.03 µM
NO

# bool: apparent KD of MS2 coat protein of UUAUUUAACGGAAGGAGCGCGGAAUAAUAAGUGGGUAAACAUGAGGAUCACCCAUGUAAACCGCAGGUAGGUCGCCGAUAUUUAU [AstrosEXyARgB#3] >= 0.03 µM
YES

# bool: apparent KD of MS2 coat protein of CAGCACAUGAGGAUCACCCAUGUGAGGGAUACCAGCUCAGGCGUGGGCCCUUGGCAGCUCUCUGGCUGACGAAAGUCAGCCUGUG [#20 SameState-TheophyllineA] >= 0.03 µM
NO

# bool: apparent KD of MS2 coat protein of UAUCCACAUGAGGAUCACCCAUGUAGGGAAGGAGCGGUGAUUUCACCAGGUAGGUCGCCUUACUGAGGAGAACCGGUGGAAUCGU [Exclusion - Arginine A (Freestyle 30)] >= 0.03 µM
NO

# bool: apparent KD of MS2 coat protein of ACAUGAGGAUCACCCAUGUUUGUUGUUCCUCGAGGACCGGUACGGCCGCCACUCGAACGAGUGGCGCGCGAGUGCGCACUCGCGC [aOa] >= 0.03 µM
NO

# bool: apparent KD of MS2 coat protein of AGACAUGAGGAUCACCCAUGUAGUAUGGAUACCAGAUCCAGAUUUAUCCCUUGGCAGCUGUGGUACAGCGAUGGAUUGCUCCUAG [Exclusion - Theophylline A (Freestyle 10)] >= 0.03 µM
YES

# bool: apparent KD of MS2 coat protein of GCUGCCAUACGAAGGAGCGCUGUUGCAAUGAGGCGAACAUGAGGAUCACCCAUGUGGCAAAAGCAGGUAGGUCGCGUAUGGCAGC [EAB #17] >= 0.03 µM
NO

# bool: apparent KD of MS2 coat protein of AAGGGACAUGAGGAUCACCCAUGUACCGAAGGAGCGGCAGAGAUGCCAGGUAGGUCGCGGUACUUGCCGGGUCAUUCAUGCAAAA [Teanbe] >= 0.03 µM
NO

# bool: apparent KD of MS2 coat protein of GAUGAACUAUAUGAUACCAGACAACAUGAGGAUCACCCAUGUGAAAGUCGUCCUCUGCCUGUCCCUUGGCAGCGUAUAGUUUAUC [XTheo B #14] >= 0.03 µM
NO

# bool: apparent KD of MS2 coat protein of GUCGUGGUCGGAAGGAGCGACAUGAGGAUCACCCAUGUCUCCCGUUAUGGGAGUUCCUUAGGUCAGGUAGGUCGCCGACUGCGGC [#1 Exclusion - Arginine B Attempt #23 (Inspired by Omei)] >= 0.03 µM
YES

# bool: apparent KD of MS2 coat protein of GAAGAUCCGUAAGAUACCAGUGCAGAUCGGCACAUGAGGAUCACCCAUGUAAAGCAAGAACACCCUUGGCAGCUUUCGUAACAAC [theeternabot_sameState_MS2_Theo_B_15] >= 0.03 µM
YES

# bool: apparent KD of MS2 coat protein of `ACAUGAGGAUCACCCAUGUAGAAAGAUCCUCGAGGACCGGUACGGCCGCCACUCGAGUGGCAGUGUGUGCAGAAAAUGCGCGCGC` >= 0.03 µM
NO

# bool: apparent KD of MS2 coat protein of UAUAUAUAGGCGGCCGCCACUGAUUUUCAUAUAUAUAUAACAUGAGGAUCACCCAUGUAGAUAUACAGGACCGGGCCUAUAUAUA [aaaA] >= 0.03 µM
NO

# bool: apparent KD of MS2 coat protein of UGCGACAAGUGAAUACUUUGUUCUAGAGAUACCAGUUCCCGAGUGAACCCUUGGCAGCUCCCAACAUGAGGAUCACCCAUGUAUU [theeternabot_exclusion_MS2_Theo_A_24] >= 0.03 µM
NO

# bool: apparent KD of MS2 coat protein of GAUGAACUAUAUGAUACCAGACAACAUGAGGAUCACCCAUGUGAUUGUCGUCCUCUGCCUGUCCCUUGGCAGCGUAUAGUUUAUC [XTheo B #16] >= 0.03 µM
NO

# bool: apparent KD of MS2 coat protein of CACAUGAGGAUCACCCAUGUCUGAACUGAAGGAGCGCUAAAUAAGGCAGGUAGGUCGCGGAAUCUUGUGUGCAUAUGCACACGGG [9.T] >= 0.03 µM
NO

# bool: apparent KD of MS2 coat protein of GCUGUACCAUGAAGGAGCGCUUUAAUUAUAGAAGAUACAUGAGGAUCACCCAUGUUCCUCGAGCAGGUAGGUCGCAUGGUACAGC [SSAB #18] >= 0.03 µM
NO

# bool: apparent KD of MS2 coat protein of AUUAAUUGUCGUGAUACCAGACUUACAUGAGGAUCACCCAUGUUACUUAAGAUUUUUGUUGUCCCUUGGCAGCACUUUUUAAUUA [JR_Nu_ExcTheophyB_Sub024] >= 0.03 µM
NO

# bool: apparent KD of MS2 coat protein of AUACCUAUUGAGUCGUGUUUCUAUUCAGAUACCAGACUUUUCGUUGUCCCUUGGCAGCUGUUUUACAUGAGGAUCACCCAUGUUG [JR_ExcTheophyA_Sub006] >= 0.03 µM
NO

# bool: apparent KD of MS2 coat protein of AGAGUCUAGUCGGCCGCCACUCAUGUCCGAAGGACAUGAGGAUCACCCAUGUACCAAUGGUACAUGAGGACCGGGACUGGACUCA [Omei Tryp B SS C v3] >= 0.03 µM
NO

# bool: apparent KD of MS2 coat protein of GCGGACAUGAGGAUCACCCAUGUAAAUCCUCGAGGACCGGUACGGCCGCCACUCGAACGAGUGGCGCGCGAGCGCGCGCUCGCGC [aBa] >= 0.03 µM
YES

# bool: apparent KD of MS2 coat protein of GUAUAUUAUAGAAGGAGCGUCGAAAAUGGGUAAACAUGAGGAUCACCCAUGUAAAGGGAACGACAGGUAGGUCGCUAUAAUAUAC [AstromonsSSArgB#14] >= 0.03 µM
YES

# bool: apparent KD of MS2 coat protein of UGCAUCAUAAUCAUGUAGGUGCUAGGUGAUACCAGCAUCGAAAGAUGCCCUUGGCAGCACCAACAUGAGGAUCACCCAUGUAAUA [(MT)''-(M)'-(T')-(Theo)-(Ms2)_Design1/22_1] >= 0.03 µM
YES

From: the supplement of paper PMC9170038
